Biological target: UniProt Q01959
Sequence (Q01959 whole entry): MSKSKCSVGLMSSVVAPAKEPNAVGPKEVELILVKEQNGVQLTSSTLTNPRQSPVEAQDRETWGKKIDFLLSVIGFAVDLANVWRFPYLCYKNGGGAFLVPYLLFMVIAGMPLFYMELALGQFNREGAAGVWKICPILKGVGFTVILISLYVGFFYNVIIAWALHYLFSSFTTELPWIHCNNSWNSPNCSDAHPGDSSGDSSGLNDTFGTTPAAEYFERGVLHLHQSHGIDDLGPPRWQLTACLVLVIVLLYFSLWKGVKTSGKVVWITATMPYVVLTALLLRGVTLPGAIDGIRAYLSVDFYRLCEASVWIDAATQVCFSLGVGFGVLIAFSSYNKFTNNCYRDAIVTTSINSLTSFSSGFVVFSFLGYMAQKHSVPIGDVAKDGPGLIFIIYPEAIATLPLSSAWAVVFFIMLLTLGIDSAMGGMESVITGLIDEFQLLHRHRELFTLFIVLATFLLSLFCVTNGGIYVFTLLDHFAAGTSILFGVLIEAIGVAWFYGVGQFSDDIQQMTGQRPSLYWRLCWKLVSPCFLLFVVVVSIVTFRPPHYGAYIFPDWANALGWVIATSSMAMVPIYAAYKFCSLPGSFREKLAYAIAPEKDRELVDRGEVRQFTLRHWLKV
Test: Inhibition of [3H]dopamine uptake at DAT (unknown origin)
REPORTED_PROPERTY: pIC50
One number for each entry, as −log10 of the molar value.

Specify pIC50 for `c1ccc(C2CCN(CCCn3nnnc3C(c3ccccc3)c3ccccc3)CC2)cc1` and stop.
7.05

====

Biological target: Sodium-dependent serotonin transporter (Homo sapiens, UniProt P31645)
Sequence (P31645 whole entry): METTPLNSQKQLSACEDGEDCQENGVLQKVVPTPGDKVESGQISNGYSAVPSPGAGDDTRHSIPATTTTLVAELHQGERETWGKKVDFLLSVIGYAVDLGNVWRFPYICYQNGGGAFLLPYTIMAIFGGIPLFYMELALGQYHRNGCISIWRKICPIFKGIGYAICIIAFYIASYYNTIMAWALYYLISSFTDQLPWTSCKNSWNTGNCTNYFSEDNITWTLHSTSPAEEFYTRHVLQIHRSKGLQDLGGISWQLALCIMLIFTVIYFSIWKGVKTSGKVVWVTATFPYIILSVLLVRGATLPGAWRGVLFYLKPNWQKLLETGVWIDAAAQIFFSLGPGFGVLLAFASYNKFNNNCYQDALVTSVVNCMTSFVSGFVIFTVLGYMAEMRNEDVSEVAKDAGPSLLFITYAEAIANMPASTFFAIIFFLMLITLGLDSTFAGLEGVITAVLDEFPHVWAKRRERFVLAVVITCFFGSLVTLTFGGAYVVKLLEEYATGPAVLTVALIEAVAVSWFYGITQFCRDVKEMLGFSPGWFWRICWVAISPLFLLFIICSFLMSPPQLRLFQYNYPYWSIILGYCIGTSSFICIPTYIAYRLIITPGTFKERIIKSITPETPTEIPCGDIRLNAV
Test: Inhibition of [3H]serotonin uptake at human SERT expressed in HEK293 cells after 15 to 20 mins by microbeta scintillation counting method
Format: cell-based
For each of the molecules below, state its pIC50.
Give bare numbers, as −log10 of the molar value.

> print(dat)
                               entry.smiles  reported.property   val
1   c1ccc(CC2CCN(CCCOc3ccc4ccccc4c3)CC2)cc1              pIC50  6.00
2  Fc1ccc(N2CCN(CCCCOc3ccc4ccccc4c3)CC2)cc1              pIC50  5.50
3  Brc1ccc(N2CCN(CCCOc3ccc4ccccc4c3)CC2)cc1              pIC50  6.08
4    COc1ccccc1N1CCN(CCCOc2ccc3ccccc3c2)CC1              pIC50  5.98
5   COc1ccccc1N1CCN(CCCCOc2ccc3ccccc3c2)CC1              pIC50  5.29

Give one value of pIC50 per listed molecule.
1. Fc1ccc(C(OCCN2CCN(c3ccccn3)CC2)c2ccc(F)cc2)cc1
2. Fc1ccc(N2CCN(CCOc3ccc4ccccc4c3)CC2)cc1
3. Clc1ccc(N2CCN(CCCCOc3ccc4ccccc4c3)CC2)c(Cl)c1
4. Brc1ccc(N2CCN(CCCCOc3ccc4ccccc4c3)CC2)cc1

1: 6.24; 2: 5.55; 3: 5.36; 4: 4.97

Give one value of pIC50 per listed molecule.
1. Clc1cccc(N2CCN(CCOc3ccc4ccccc4c3)CC2)c1
2. FC(F)(F)c1ccc(N2CCN(CCCCOc3ccc4ccccc4c3)CC2)cc1
3. c1ccc(N2CCN(CCOc3ccc4ccccc4c3)CC2)nc1

1: 5.73; 2: 6.17; 3: 5.97

====

Target: Sodium-dependent noradrenaline transporter (Homo sapiens, UniProt P23975)
Sequence (P23975 whole entry): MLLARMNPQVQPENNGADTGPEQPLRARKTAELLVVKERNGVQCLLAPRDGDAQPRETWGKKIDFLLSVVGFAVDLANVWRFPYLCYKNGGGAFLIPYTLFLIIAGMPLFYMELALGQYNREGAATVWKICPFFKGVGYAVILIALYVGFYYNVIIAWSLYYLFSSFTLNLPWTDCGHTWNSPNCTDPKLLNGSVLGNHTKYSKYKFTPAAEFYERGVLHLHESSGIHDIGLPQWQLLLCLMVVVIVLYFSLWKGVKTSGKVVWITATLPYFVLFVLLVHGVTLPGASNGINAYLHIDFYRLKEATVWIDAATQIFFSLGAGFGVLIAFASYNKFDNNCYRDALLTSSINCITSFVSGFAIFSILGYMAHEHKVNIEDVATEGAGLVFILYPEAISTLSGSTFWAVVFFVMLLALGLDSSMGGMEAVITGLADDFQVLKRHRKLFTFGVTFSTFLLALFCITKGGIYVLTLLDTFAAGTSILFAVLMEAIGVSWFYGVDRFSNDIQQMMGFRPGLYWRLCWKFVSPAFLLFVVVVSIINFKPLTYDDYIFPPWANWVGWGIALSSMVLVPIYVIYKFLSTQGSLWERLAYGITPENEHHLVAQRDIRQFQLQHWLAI
Assay: Inhibition of [3H]norepinephrine uptake at human NET expressed in HEK293 cells at 10 uM after 15 to 20 mins by microbeta scintillation counting method
Format: cell-based
Label 1.0 when inhibition is at or above 70%; otherwise label 0.0.

Recorded results for 8 molecules are shown here.
> print(dat)
                                   molecule  assigned.label
1    Fc1ccc(N2CCN(CCOc3ccc4ccccc4c3)CC2)cc1             1.0
2  Brc1ccc(N2CCN(CCCOc3ccc4ccccc4c3)CC2)cc1             1.0
3  CC(NC(C)(C)C)C(=O)c1cccc(Cl)c1 (centres undefined)             0.0
4   Brc1ccc(N2CCN(CCOc3ccc4ccccc4c3)CC2)cc1             0.0
5  Cc1cccc(C)c1N1CCN(CCCOc2ccc3ccccc3c2)CC1             1.0
6   c1ccc(CC2CCN(CCCOc3ccc4ccccc4c3)CC2)cc1             1.0
7  Fc1ccc(N2CCN(CCCCOc3ccc4ccccc4c3)CC2)cc1             1.0
8     c1ccc(N2CCN(CCOc3ccc4ccccc4c3)CC2)nc1             0.0

Tell me whether inhibition is at least 70% here: `Brc1ccc(N2CCN(CCCCOc3ccc4ccccc4c3)CC2)cc1`
0.0

Tell me whether inhibition is at least 70% here: `Clc1ccc(N2CCN(CCCCOc3ccc4ccccc4c3)CC2)c(Cl)c1`
0.0

Tell me whether inhibition is at least 70% here: `Clc1cccc(N2CCN(CCCCOc3ccc4ccccc4c3)CC2)c1`
0.0

Tell me whether inhibition is at least 70% here: `Clc1ccc(N2CCN(CCOc3ccc4ccccc4c3)CC2)cc1`
0.0

Tell me whether inhibition is at least 70% here: `c1ccc(N2CCN(CCOc3ccc4ccccc4c3)CC2)cc1`
0.0
